tested on: DU-145 prostate; assay: NCI-60 one-dose screen, 48 h (100 = growth as untreated, 0 = no growth, -100 = all killed); details: 10 µM
The panel holds about 83,000 compounds, 20% with a hit somewhere; the sample as a whole holds those more often.
Assay Readout: growth (%)

compound="CC(=O)Nc1ccc2c(c1)C(N1CC3CCC(CC3)C1)c1ccccc1-2 (stereo not given)" test_value=109
compound=CCCCC(=O)N(c1ccc(Nc2c3ccccc3nc3cc([N+](=O)[O-])ccc23)cc1)S(C)(=O)=O test_value=26.3
compound=Cc1nn2c(/C=C3/C(=O)Nc4ccc(Cl)cc43)c(-c3ccccc3)nc2s1 test_value=31.9
compound=FC(F)(F)c1ccc(-c2cnc(Cl)nc2NCc2cc(C(F)(F)F)cc(C(F)(F)F)c2)cc1 test_value=18.8
compound=O=C(O)c1cc(C(F)(F)F)cc(C(F)(F)F)c1 test_value=116
compound=CC(C)/C(=N/O)c1ccccc1 test_value=114
compound="COc1ccc(-c2nsc3c2NC(=O)CC3c2ccc(Cl)cc2)cc1 (stereo not given)" test_value=98.4
compound=COc1ccc(-c2nc(SCC(=O)c3ccc(Br)cc3)[nH]c(=O)c2C#N)cc1 test_value=103
compound="NC(=O)C12C(=O)NC(=O)C1(C(=O)O)C21CCCC1 (stereo not given)" test_value=133
compound=Oc1[nH]c2ccccc2c1/C=c1/cc2c(c(-c3ccc(C(F)(F)F)cc3)n1)=Nc1ccccc1-2 test_value=62.5
